Listing: pKi of selected binders
testedTarget: T1, human recombinant GIP receptor (human, UniProt P48546 22-466)
T1 construct: whole, on cells; Assayed as washed membranes of CHO-K1 cells expressing the receptor; also called hGIP receptor
T1 sequence (looked up): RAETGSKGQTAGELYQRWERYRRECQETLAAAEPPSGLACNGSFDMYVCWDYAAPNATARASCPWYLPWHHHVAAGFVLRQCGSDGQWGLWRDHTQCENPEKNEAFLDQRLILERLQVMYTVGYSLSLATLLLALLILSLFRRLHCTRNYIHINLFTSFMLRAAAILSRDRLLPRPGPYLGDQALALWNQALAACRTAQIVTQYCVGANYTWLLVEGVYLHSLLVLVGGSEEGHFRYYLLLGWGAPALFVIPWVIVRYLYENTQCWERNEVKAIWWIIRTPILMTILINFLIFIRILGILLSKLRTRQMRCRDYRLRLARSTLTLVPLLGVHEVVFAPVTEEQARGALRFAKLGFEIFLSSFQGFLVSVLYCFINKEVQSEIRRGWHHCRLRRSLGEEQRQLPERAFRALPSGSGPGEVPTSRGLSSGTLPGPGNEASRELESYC
measurementDescription: displacement of [125I]GIP, membranes of CHO-K1 cells expressing human GIP receptor
pKi: −log10 of the molar value.

{"binder": "YGEGTFISDYXIAMDKIHQQDFVNWLLAQKGKKNDWKHNIXQ (pseudopeptide bond Ψ-(CH2-NH) between Tyr 1 and Gly 2; A5c at 11 and 41) [[Tyr^1-Ψ-(CH2-NH)Gly^2, A5c^11, 41]hGIP(1-42)-OH]", "pKi": 7.31}
{"binder": "YXEGTFISDYXIAXDKIHQQDFVNWLLAQKGKKNDWKHNITQ (3I-Tyr at 1; Aib at 2; A5c at 11; Nle at 14) [(3I-Tyr^1, Aib^2, A5c^11, Nle^14)hGIP(1-42)-OH]", "pKi": 8.30}
{"binder": "FXEGTFISDYXIAMDKIHQQDFVNWLLAQKGKKNDWKHNITQH (4CN-Phe at 1; Aib at 2; A5c at 11) [(4CN-Phe^1, Aib^2, A5c^11, His^43)hGIP(1-43)-OH]", "pKi": 8.29}
{"binder": "XXEGTFISDYSIAMDKIHQQDFVNWLLAQK (4Hppa at 1; Aib at 2; C-terminal amide) [(4Hppa^1, Aib^2)hGIP(1-30)-NH2]", "pKi": 8.80}
{"binder": "FXEGTFISDYXIAXDKIHQQDFVNWLLAQKGKKNDWKHNITQ (3,5F-Phe at 1; Aib at 2; A5c at 11; Nle at 14) [(3,5F-Phe^1, Aib^2, A5c^11, Nle^14)hGIP(1-42)-OH]", "pKi": 7.59}
{"binder": "FXEGTFISDYXIAMDKIHQQDFVNWLLAQKGKKNDWKHNIXQ (4F-Phe at 1; Aib at 2; A5c at 11 and 41) [(4F-Phe^1, Aib^2, A5c^11, 41)hGIP(1-42)-OH]", "pKi": 8.24}
